Target: T1, FASN Keto-reductase Domain (Homo sapiens, UniProt P49327)
T1 construct: 10 μL hFASN enzyme (full length, 300 ng, purified in house) and 360 μM NADPH; made in house
T1 sequence (P49327 whole entry, the tested form may be a part): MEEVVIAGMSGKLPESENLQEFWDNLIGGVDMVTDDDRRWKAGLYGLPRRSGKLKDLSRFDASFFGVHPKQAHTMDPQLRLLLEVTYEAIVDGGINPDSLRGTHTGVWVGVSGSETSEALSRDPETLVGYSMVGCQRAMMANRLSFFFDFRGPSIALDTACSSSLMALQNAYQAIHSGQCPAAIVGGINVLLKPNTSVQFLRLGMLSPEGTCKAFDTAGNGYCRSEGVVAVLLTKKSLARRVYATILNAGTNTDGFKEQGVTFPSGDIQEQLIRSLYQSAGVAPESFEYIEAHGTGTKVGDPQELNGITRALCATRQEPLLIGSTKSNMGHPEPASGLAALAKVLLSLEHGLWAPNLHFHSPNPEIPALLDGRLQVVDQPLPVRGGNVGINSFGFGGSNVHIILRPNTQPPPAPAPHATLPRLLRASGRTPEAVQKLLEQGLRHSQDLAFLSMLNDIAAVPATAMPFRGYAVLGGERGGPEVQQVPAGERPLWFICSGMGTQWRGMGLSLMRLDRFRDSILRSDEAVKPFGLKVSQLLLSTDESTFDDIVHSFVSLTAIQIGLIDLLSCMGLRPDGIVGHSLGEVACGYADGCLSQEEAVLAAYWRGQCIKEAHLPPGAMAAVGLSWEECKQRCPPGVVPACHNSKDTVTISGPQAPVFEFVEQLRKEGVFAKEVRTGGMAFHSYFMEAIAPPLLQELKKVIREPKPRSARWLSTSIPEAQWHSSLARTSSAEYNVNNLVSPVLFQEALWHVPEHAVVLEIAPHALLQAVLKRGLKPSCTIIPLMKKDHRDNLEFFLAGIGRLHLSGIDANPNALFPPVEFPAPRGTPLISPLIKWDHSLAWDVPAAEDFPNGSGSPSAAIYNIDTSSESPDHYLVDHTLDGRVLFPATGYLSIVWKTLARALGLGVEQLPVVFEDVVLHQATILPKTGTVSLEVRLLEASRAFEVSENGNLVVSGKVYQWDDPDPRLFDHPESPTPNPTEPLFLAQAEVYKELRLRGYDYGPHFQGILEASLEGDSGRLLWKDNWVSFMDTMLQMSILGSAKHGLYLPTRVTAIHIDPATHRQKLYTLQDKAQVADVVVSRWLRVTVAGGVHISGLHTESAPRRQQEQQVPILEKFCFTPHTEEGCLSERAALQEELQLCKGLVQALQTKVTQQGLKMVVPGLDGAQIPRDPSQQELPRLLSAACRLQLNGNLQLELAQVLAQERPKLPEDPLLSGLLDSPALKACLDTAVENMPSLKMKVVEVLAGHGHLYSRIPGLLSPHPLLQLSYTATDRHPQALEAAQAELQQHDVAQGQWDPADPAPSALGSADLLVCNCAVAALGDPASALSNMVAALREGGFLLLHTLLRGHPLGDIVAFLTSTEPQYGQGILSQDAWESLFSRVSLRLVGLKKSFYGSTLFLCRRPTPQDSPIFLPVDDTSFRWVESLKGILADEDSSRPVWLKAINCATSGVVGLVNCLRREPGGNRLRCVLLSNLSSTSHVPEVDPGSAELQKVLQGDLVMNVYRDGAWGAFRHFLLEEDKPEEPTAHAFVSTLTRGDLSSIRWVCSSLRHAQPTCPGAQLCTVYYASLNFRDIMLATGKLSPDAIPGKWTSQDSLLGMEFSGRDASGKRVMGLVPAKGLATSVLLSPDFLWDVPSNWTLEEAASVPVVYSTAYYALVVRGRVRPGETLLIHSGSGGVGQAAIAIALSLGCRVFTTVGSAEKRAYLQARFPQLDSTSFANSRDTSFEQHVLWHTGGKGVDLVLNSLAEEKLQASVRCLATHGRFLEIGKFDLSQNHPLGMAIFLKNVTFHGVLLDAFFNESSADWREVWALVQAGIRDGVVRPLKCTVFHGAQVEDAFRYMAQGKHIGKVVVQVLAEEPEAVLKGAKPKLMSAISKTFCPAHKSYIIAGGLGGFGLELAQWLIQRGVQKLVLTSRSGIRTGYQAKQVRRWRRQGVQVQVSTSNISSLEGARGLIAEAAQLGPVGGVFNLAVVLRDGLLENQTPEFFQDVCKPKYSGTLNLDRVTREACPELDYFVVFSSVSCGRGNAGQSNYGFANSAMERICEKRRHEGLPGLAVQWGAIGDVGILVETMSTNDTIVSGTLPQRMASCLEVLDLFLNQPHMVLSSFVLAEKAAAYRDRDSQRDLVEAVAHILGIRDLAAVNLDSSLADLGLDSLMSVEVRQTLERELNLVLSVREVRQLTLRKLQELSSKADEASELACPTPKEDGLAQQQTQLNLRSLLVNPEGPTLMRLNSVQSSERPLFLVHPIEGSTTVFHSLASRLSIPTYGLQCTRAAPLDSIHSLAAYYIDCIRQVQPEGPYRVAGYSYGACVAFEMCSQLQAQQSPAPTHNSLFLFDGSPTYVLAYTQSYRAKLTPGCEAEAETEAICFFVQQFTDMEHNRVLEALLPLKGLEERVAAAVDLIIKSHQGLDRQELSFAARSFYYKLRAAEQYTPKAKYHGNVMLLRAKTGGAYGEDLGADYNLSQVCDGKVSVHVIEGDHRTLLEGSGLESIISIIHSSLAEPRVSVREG
Assay: Fatty Acid Synthase Keto-Reductase Domain (FASN KR) Inhibition
Format: biochemical
Settings: mean where tested more than once; read-out: FASN K-R Domain pIC50 (converted)
Procedure: 10 μL assay buffer (100 mM KH2PO4 pH 7.5) was added to a 384-well clear plate (costar 3702). […] Then, 10 μL 180 mM ethyl acetoacetate (Aldrich 688983) was added, mixed and immediately thereafter, the absorbance at 340 nm (T1) by Multiscan (Labsystems) was measured. After 20 minutes incubation at room temperature the plate was measured again (T2). The decrease in absorbance was calculated as (Absorbance before incubation T1)−(Absorbance following incubation T2). […]
Assign labels as follows, please: label 1 for IC50 below 90 nM; label 0 for IC50 equal to or exceeding 90 nM.

{"compound": "Cc1ccc(C(=O)N2CCC(c3ccc(-c4cnn(C)c4)cc3)CC2)cc1NC(=O)C1CCN(C2CCCC2)C1 (centres unmarked)", "classification": "label 0"}
{"compound": "CC(C)Nc1ccc(C(=O)Nc2cc(C(=O)N3CC(c4ccc(-c5ccnn5C)cc4)C3)ccc2Cl)cn1", "classification": "label 1"}
{"compound": "COc1ccc(-c2ccc(C3CCN(C(=O)c4ccc(C)c(NC(=O)c5ccc(NC(C)C)nc5)c4)CC3)cc2)cc1", "classification": "label 0"}
{"compound": "Cc1ccc(C(=O)N2CCC(c3ccc(-c4cnn(C)c4)cc3)CC2)cc1NC(=O)C1CCN(C2CCC2)C1 (centres unmarked)", "classification": "label 0"}
{"compound": "Cc1ccc(C(=O)N2CC(c3ccc(-c4cnn(C)c4)cc3)C2)cc1NC(=O)c1cnc(N2CCOCC2)nc1", "classification": "label 1"}
{"compound": "Cc1ccc(C(=O)N2CC(c3ccc(-c4ccnn4C)cc3)C2)cc1NC(=O)c1ccc(N2CCCCC2)nc1", "classification": "label 1"}
{"compound": "CN(C)c1ccc(C(=O)N2CCC(c3ccc(-c4cnn(C)c4)cc3)CC2)cc1NC(=O)c1ccc(Cl)nc1", "classification": "label 0"}
{"compound": "Cc1ccc(C(=O)N2CCC(c3ccc(-c4cnn(C)c4)cc3)CC2)cc1NC(=O)c1cnc(Cl)nc1", "classification": "label 1"}
{"compound": "COc1cccc(-c2ccc(C3CCN(C(=O)c4ccc(C)c(NC(=O)c5ccc(NC(C)C)nc5)c4)CC3)cc2)c1", "classification": "label 0"}
{"compound": "Cc1ccc(C(=O)N2CC(c3ccc(-c4cnn(C)c4)cc3)C2)cc1NC(=O)c1cccc(C(F)(F)F)n1", "classification": "label 0"}
{"compound": "Cc1ccc(C(=O)N2CCC(c3ccc(-c4cnn(C)c4)cc3)CC2)cc1NC(=O)C1CCCCC1", "classification": "label 1"}
{"compound": "Cc1ccc(C(=O)N2CCC(c3ccc(-c4cnn(CCO)c4)cc3)CC2)cc1NC(=O)c1ccc(NC(C)C)nc1", "classification": "label 1"}
{"compound": "Cc1ccc(C(=O)N2CCC(c3ccc(-c4cnn(C)c4)cc3)CC2)cc1NC(=O)c1cc(F)ccc1C", "classification": "label 0"}
{"compound": "CC(C)Nc1ccc(C(=O)Nc2cc(C(=O)N3CCC(c4ccc(-c5cnn(C)c5)cc4)CC3)ccc2N)cn1", "classification": "label 0"}
{"compound": "Cc1ccc(C(=O)N2CCC(c3ccc(-c4cnn(C)c4)cc3)CC2)cc1NC(=O)C1CCN(C(C)C)C1 (centres unmarked)", "classification": "label 0"}
{"compound": "Cc1ccc(C(=O)N2CC(c3ccc(-c4ccc5c(cnn5C)c4)cc3)C2)cc1NC(=O)c1ccc(NC(C)C)nc1", "classification": "label 0"}
{"compound": "Cc1ccc(C(=O)N2CCC(c3ccc(-c4cnn(C)c4)cc3)CC2)cc1NC(=O)c1sccc1C", "classification": "label 0"}
{"compound": "Cc1ccc(C(=O)N2CC(c3ccc(-c4cnn(C)c4)cc3)C2)cc1NC(=O)c1ccccc1F", "classification": "label 1"}
{"compound": "Cc1ccc(C(=O)N2CCC(c3ccc(-c4cnn(C)c4)cc3)CC2)cc1NC(=O)C1CCN(C(=O)C2CC2)C1 (centres unmarked)", "classification": "label 0"}
{"compound": "COCCN(C)c1ccc(C(=O)N2CCC(c3ccc(-c4cnn(C)c4)cc3)CC2)cc1NC(=O)C1CC1", "classification": "label 0"}
{"compound": "Cc1ccc(C(=O)N2CCC(c3ncc(-c4cnn(C)c4)cn3)CC2)cc1NC(=O)c1ccc(Cl)nc1", "classification": "label 0"}
{"compound": "Cc1ccc(C(=O)N2CCC(c3ccc(-c4cnn(C)c4)cc3)CC2)cc1NC(=O)C1CCNCC1", "classification": "label 0"}
{"compound": "Cc1ccc(C(=O)N2CCC(c3ccc(-c4cnn(C)c4)cc3)CC2)cc1NC(=O)C1CCN(CC(C)(C)C)CC1", "classification": "label 1"}
{"compound": "Cc1ccc(C(=O)N2CCC(c3ccc(-c4cnn(C)c4)cc3)CC2)cc1NC(=O)C1CN(C(C)C)C1", "classification": "label 0"}
{"compound": "Cc1cccc(-c2ccc(C3CCN(C(=O)c4ccc(C)c(NC(=O)c5ccc(NC(C)C)nc5)c4)CC3)cc2)c1", "classification": "label 0"}
